Sourced from ChEMBL document CHEMBL5120762

Assay: Cytotoxicity against human GES1 cells assessed as reduction in cell viability measured after 48 hrs by MTT assay
Type: toxicity, cell-based
Measured Parameter: IC50 at 48 h (µM)
Give bare numbers, in µM.

Recorded IC50 at 48 h (compound Cn1c2nc3cc(F)ccc3c-2cc2ccccc21 ): 40

----------
System: SMMC-7721
Assay: Cytotoxicity against human SMMC-7721 cells assessed as reduction in cell viability measured after 48 hrs by MTT assay
Format: functional, cell-based
Settings: SMMC-7721, 48 h
Measured Parameter: IC50 (µM)
Give bare numbers, in µM.

SMMC-7721 assay, compound Cn1c2nc3cc(F)ccc3c-2cc2ccccc21 , recorded IC50 = 52
